Measured protein stability index, listed per entry for reference.
B1: MIA2 (parent)
chain: SVIEPVQESSFRSRKIAVEDENDL

variants of: B1; assay: protein stability index of a GFP-peptide fusion (GPS, HEK-293T) (PSI 1-6); higher = more stable; details: c terminus: a fixed tail appended;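 further: lentivirally expressed fusions sorted by FACS into six bins by GFP to DsRed ratio, PSI derived from sequencing read proportions per bin multiplied by bin number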
Number, no unit, nothing else.

D20I :: 4.64
R14L :: 4.98
L24M :: 5.31
S9M :: 4.37
V2G :: 5.67
R12E :: 5.75
V18C :: 5.03
S9E :: 5.05
K15Y :: 5.29
E21V :: 4.9

Noted for S1I : its protein stability index reads 3.96

Per the records, this variant ( S9D ) has protein stability index equal to 5.35

In plain terms, R12L has a documented protein stability index of 5.22

Per the record, V2Q has protein stability index of 5.82

// protein stability index lookup, variant = S9C , result: 5.09

Entry E19Q ; protein stability index = 5.33

Entry E8T — recorded protein stability index = 4.52
